Data origin: patent US5998437A

test system: rat A10 cells; test: Activity for inhibiting proliferation of rat A10 cells ([3H]-thymidine uptake); type: cell-based; details: A10, 24 h, read-out: Activity for inhibiting proliferation of rat A10 cells [IC50 (μM)]
Item-by-item account of IC50
The reply should be a number in µM, with the unit left off.

O=C(Nc1ccc2c(c1)CCN2CCCN1CCC(O)(c2ccccc2)CC1)c1nc2ccc(Cl)cc2n1Cc1ccccc1 [Example 20] :: 0.85

Please turn your attention to the following entry.
(Q) If you can, please state the reported IC50 value of O=C(Nc1ccc2[nH]ccc2c1)c1nc2ccc(Cl)cc2n1Cc1ccccc1 [Example 2] .
(A) 0.4

###

target: cGMP-PDE (Homo sapiens, UniProt O76074); construct: Separation and partial purification of PDE (phosphodiesterase) from human platelets; from tissue; host or cells: human platelets (supernatant, DEAE-cellulose FI fraction); assay: Activity for inhibiting cGMP PDE (PDE partially purified from human platelets, FI fraction); type: biochemical; conditions: 0.4 μM of [3H]-cGMP
Readout Name: IC50 (µM)
Dear colleague, please return just the value in µM, with no unit written.

Recorded results for 4 compounds are shown here.
O=C(Nc1ccc2[nH]ccc2c1)c1nc2ccc(Cl)cc2n1Cc1ccccc1 :: 0.02
O=C(NCCCn1ccc2cc(NC(=O)c3nc4ccc(Cl)cc4n3Cc3ccccc3)ccc21)c1cccnc1 :: 0.01
CN(C)CCN(C)CCCN1C(=O)CCc2cc(NC(=O)c3nc4ccc(Cl)cc4n3Cc3ccccc3)ccc21 :: 0.014
O=C(Nc1ccc2[nH]ncc2c1)c1nc2ccc(Cl)cc2n1Cc1ccccc1 :: 0.02

(Q) If you can, please state the reported IC50 value of "N#Cc1cccc(OCCCn2ccc3cc(NC(=O)c4nc5ccc(Cl)cc5n4Cc4ccccc4)ccc32)c1" .
(A) 0.12

(Q) Dear colleague, I am looking for the recorded IC50 of the following compound: "O=C(Nc1ccc2c(c1)CCN2CCCN1CCC(O)(c2ccccc2)CC1)c1nc2ccc(Cl)cc2n1Cc1ccccc1"
(A) 0.01

###

target: cGMP-PDE (Homo sapiens); construct: Separation and partial purification of PDE (phosphodiesterase) from human platelets; from tissue; host or cells: human platelets (supernatant, DEAE-cellulose FI fraction); assay: Activity for inhibiting cGMP PDE (PDE partially purified from human platelets, FI fraction); type: biochemical; conditions: 0.4 μM of [3H]-cGMP
Define the label as T when IC50 is strictly less than 0.06 µM and as F in all remaining cases.

O=C(NCCCN1CCOc2cc(NC(=O)c3nc4ccc(Cl)cc4n3Cc3ccccc3)ccc21)c1ccccn1 [Example 47] :: T
C=CCN1C(=O)CCc2cc(NC(=O)c3nc4ccc(Cl)cc4n3Cc3ccccc3)ccc21 [Example 42] :: F
O=C1CCc2cc(NC(=O)c3nc4ccc(Cl)cc4n3Cc3ccccc3)ccc2N1 [Example 41] :: T
Cc1noc(C)c1C(=O)NCCCN1CCc2cc(NC(=O)c3nc4ccc(Cl)cc4n3Cc3ccccc3)ccc21 [Example 33] :: T

(Q) Is IC50 strictly under 0.06 µM for the entry O=C(NCCCN1CCc2cc(NC(=O)c3nc4ccc(Cl)cc4n3Cc3ccccc3)ccc21)c1ccc[nH]1 [Example 28] ?
(A) T

(Q) Just wondering, is IC50 of O=C(Nc1ccc2c(ccn2CCCn2ccnc2)c1)c1nc2ccc(Cl)cc2n1Cc1ccccc1 [Example 3] below 0.06 µM?
(A) T

(Q) Confirm or reject: IC50 of COC(=O)n1ccc2cc(NC(=O)c3nc4ccc(Cl)cc4n3Cc3ccccc3)ccc21 [Example 9] lies strictly below 0.06 µM
(A) F
